- assayed_system: PRMT5/MEP50 (Homo sapiens)
- Construct: Flag-PRMT5
- Sequence (O14744 with tags, fused parts or gaps): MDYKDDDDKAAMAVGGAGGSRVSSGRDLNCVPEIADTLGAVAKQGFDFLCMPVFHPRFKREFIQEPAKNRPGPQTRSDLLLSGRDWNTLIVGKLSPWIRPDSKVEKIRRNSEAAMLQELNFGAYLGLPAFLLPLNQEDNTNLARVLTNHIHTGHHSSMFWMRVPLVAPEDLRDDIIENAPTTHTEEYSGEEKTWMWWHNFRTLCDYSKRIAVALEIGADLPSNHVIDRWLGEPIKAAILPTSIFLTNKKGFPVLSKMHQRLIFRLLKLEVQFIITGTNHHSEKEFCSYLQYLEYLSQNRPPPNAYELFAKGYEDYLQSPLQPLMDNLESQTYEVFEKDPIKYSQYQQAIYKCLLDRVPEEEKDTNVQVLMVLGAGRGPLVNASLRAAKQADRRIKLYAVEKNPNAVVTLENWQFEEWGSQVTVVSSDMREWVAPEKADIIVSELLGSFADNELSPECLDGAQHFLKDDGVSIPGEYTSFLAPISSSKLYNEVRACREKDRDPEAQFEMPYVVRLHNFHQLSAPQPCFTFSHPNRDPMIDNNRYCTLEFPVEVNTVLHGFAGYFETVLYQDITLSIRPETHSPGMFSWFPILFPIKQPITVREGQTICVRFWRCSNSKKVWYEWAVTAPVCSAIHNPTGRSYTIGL
- Sequence (Q9BQA1 with tags, fused parts or gaps partner limits assumed): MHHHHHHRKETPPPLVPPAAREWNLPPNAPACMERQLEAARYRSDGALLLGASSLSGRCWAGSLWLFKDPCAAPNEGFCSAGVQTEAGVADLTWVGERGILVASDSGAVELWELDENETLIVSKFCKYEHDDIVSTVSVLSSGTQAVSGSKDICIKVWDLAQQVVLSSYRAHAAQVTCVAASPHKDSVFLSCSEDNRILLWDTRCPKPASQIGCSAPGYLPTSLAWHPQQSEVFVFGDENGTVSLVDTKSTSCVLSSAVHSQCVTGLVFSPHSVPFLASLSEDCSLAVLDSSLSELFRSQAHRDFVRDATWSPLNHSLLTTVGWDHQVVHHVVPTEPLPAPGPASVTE
- test_name: PRMT5 Biochemical Assay (PRMT5/MEP50 enzyme assay on peptide substrate, 3H-SAM Flashplate)
- cond: PRMT5/MEP50 4 nM, 3H-SAM 75 nM, peptide 40 nM, 30 min preincubation at 25 degrees Celsius
- Text: S-adenosylmethionine (SAM), S-adenosylhomocysteine (SAH), bicine, KCl, Tween20, dimethylsulfoxide (DMSO), bovine skin gelatin (BSG), and Tris(2-carboxyethyl)phosphine hydrochloride solution (TCEP) were purchased from Sigma-Aldrich at the highest level of purity possible. ^3H-SAM was purchase from American Radiolabeled Chemicals with a specific activity of 80 Ci/mmol. 384-well streptavidin Flashplates were purchased from PerkinElmer. […]
measurement_type: IC50

# annotated cases, reported IC50 shown
{"columns": ["compound", "IC50"],
 "data": [
  ["CC(=O)N1CCC(Nc2cc(C(=O)NC[C@H](O)CN3CCc4ncn(C)c4C3)ccn2)CC1", "> 10 µM"],
  ["O=C(COc1cccc2cccnc12)NCC(O)CN1CCc2cnccc2C1 (stereo not drawn)", "1 to 10 µM"]
]}

// next item, IC50 requested
**Query** Bench note: what IC50 did `CC(=O)N1CC(Nc2cc(C(=O)NC[C@H](O)CN3CCc4[nH]c(C)nc4C3)ncn2)C1` show?
**Result** > 10 µM
